Cited source: patent US11192890B2

Catalogue of pIC50 readings, one per entry.
Biological target: FGFR1 (Homo sapiens)
Sequence (P11362 22-822): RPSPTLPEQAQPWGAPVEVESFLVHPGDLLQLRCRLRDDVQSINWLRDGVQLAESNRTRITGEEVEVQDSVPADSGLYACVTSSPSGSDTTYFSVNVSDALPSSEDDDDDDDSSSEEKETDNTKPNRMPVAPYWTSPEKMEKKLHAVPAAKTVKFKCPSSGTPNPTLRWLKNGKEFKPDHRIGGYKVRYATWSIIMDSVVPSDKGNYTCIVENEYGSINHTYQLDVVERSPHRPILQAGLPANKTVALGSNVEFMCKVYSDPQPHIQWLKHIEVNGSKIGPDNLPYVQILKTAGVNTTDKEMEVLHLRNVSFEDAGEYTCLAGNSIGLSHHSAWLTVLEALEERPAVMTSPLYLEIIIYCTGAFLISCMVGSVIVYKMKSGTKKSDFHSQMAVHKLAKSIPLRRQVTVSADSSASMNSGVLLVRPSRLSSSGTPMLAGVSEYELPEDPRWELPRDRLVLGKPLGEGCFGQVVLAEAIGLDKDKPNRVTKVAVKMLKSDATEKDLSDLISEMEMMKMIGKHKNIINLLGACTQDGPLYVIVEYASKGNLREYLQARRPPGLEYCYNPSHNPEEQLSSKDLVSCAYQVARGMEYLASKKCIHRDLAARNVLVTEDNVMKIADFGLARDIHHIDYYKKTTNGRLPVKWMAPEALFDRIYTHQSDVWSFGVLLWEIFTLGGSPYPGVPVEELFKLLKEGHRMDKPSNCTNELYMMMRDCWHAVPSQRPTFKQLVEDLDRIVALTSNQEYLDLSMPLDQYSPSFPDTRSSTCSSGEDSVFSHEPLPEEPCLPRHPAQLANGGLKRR
Assay: Isolated enzyme FRET-based Z-Lyte kinase inhibition assay
Settings: means from 3 independent experiments; read-out: Isolate Enzyme Inhibition IC50, FGFR1
Procedure: FGFR1-4 and the Z-Lyte Kinase Assay Kit were purchased from Invitrogen. The concentration gradients from 5.1×10^−11 to 1.0×10^−6 mol/L were used for all the test compounds. The experiments were performed according to the instructions of the manufacturer. FGFR1-4 isolated enzyme activity was determined using the FRET-based Z-Lyte kinase inhibition assay. The data are the means from 3 independent experiments.
To interpret pIC50, take it as minus log10 of a concentration measured in moles per litre.

Examples with answers:
- COc1cc(OC)c(Br)c(-c2cc3cnc(NC(C)C)nc3n(C3CCN(C(=O)/C=C/CN(C)C)CC3)c2=O)c1Br [Compound 153]: 9.10
- COc1cc(OC)c(Br)c(N2Cc3cnc(NC(C)C)nc3N(C3CCN(C(=O)/C=C/CN(C)C)CC3)C2=O)c1Br [Compound 151]: 8.38
- COc1cc(OC)c(Cl)c(-c2cc3cnc(NC(C)C)nc3n(C3CCN(C(=O)/C=C/CN(C)C)CC3)c2=O)c1Cl [Compound 133]: 9.00

Could you tell me which pIC50 is on file for COc1cc(OC)c(Cl)c(-c2cc3cnc(Nc4ccccc4)nc3n(C3CCN(C(=O)/C=C/CN(C)C)CC3)c2=O)c1Cl [Compound 138] ?
8.96

====

experiment: Murine plasma pharmacokinetics assay; format: in vivo, NIH-III nude mice; conditions: female, NIH-III nude, mouse, plasma, ip, 40 mg/kg, 40 mg/kg intraperitoneal, plasma, observed; read-out: AUC0-24
Readout Label: AUC(0-t) (µM·h)
Field: numeric (µM·h). Do not append units.

What does the data say about its AUC(0-t)? Entry: COc1cc(OC)c(Cl)c(N2Cc3cnc(Nc4ccccc4)nc3N(C3CCN(C(=O)/C=C/C[N+](C)(C)Cc4c([N+](=O)[O-])ncn4C)CC3)C2=O)c1Cl.[Br-]
382

====

target: UniProt:P11362; experiment: Isolated enzyme FRET-based Z-Lyte kinase inhibition assay; conditions: means from 3 independent experiments; read-out: Isolate Enzyme Inhibition IC50, FGFR1
Readout Label: IC50
Remember to follow the number with its unit.

For orientation, consider the following solved cases.
• CNc1ncc2c(n1)N(Cc1cccc(NC(=O)/C=C/CN(C)C)c1)C(=O)N(c1c(Cl)c(OC)cc(OC)c1Cl)C2 [Compound 127] = 1 nM
• CNc1ncc2c(n1)N(C1CCC(NC(=O)/C=C/CN(C)C)CC1)C(=O)N(c1c(Cl)c(OC)cc(OC)c1Cl)C2 (centres unmarked) [Compound 126] = 0.5 nM
• CCNc1ncc2cc(-c3c(Cl)c(OC)cc(OC)c3Cl)c(=O)n(Cc3cccc(NC(=O)/C=C/CN(C)C)c3)c2n1 [Compound 144] = 0.9 nM
• COc1cc(OC)c(Cl)c(-c2cc3cnc(NCC4CCOCC4)nc3n(C3CCN(C(=O)/C=C/CN(C)C)CC3)c2=O)c1Cl [Compound 137] = 0.7 nM
• COc1cc(Nc2ncc3cc(-c4c(Cl)c(OC)cc(OC)c4Cl)c(=O)n(C4CCN(C(=O)/C=C/CN(C)C)CC4)c3n2)ccc1F [Compound 141] = 0.7 nM

IC50 lookup needed for COc1cc(OC)c(Cl)c(N2Cc3cnc(Nc4ccccc4)nc3N([C@H]3CCN(C(=O)/C=C/CN(C)C)C3)C2=O)c1Cl [Compound 106] , thanks.
1.1 nM

Continue with COc1cc(OC)c(Br)c(-c2cc3cnc(Nc4ccccc4)nc3n(C3CCN(C(=O)/C=C/CN(C)C)CC3)c2=O)c1Br [Compound 152]
0.7 nM

Repeat with COc1cc(OC)c(Cl)c(-c2cc3cnc(NC4CCOC4)nc3n(C3CCN(C(=O)/C=C/CN(C)C)CC3)c2=O)c1Cl (centres unmarked) [Compound 134]
1.1 nM
